# Test system: HepG2-A16-CD81EGFP cells
# Assay comment: cells
# Test context: Homo sapiens, HepG2, read-out: % inhibition
Each entry below carries its reported inhibition at 50 µM.
# unit: % | format: bare number

Examples with their reported inhibition at 50 µM follow.
compound=CN1CCN(c2c3c(c(C#N)c4nc5ccccc5n24)CCC3)CC1 property_measured="inhibition at 50 µM" units_text=% quantitative_readout=-6.02
compound=CCN1CCN(c2cc(C)c3cc(NC(=O)c4ccc(OC)c(OC)c4)ccc3n2)CC1 property_measured="inhibition at 50 µM" units_text=% quantitative_readout=98.4
compound=O=C(NC1CCN(Cc2ccccc2)CC1)c1cc(-c2ccncc2)nc2ccc(Cl)cc12 property_measured="inhibition at 50 µM" units_text=% quantitative_readout=89.1

Reported inhibition at 50 µM for `Cc1cc(NC(=O)c2cccc(C(F)(F)F)c2)n(-c2nc(-c3ccc4c(c3)OCO4)cs2)n1` was -14.6

Reported inhibition at 50 µM for CCOc1ccccc1CNC(=O)C1c2ccccc2C(=O)N(CC(C)C)C1c1cccs1 (stereo not shown) was 90.2

Reported inhibition at 50 µM for COc1ccc(CN2CCCC(C(=O)c3ccc(C(F)(F)F)cc3)C2)c(O)c1 (stereo not shown) was 94.3

Reported inhibition at 50 µM for `CCOc1ccc(-c2nonc2NC(=O)c2cccc(C)c2)cc1OCC` was 0.576

Reported inhibition at 50 µM for COc1ccc(C(=O)C2CC2c2ccc(Cl)cc2)cc1 (stereo not shown) was 38.1

Reported inhibition at 50 µM for `CCOc1ccccc1NC(=O)CN1CCN(C(=O)c2ccco2)CC1` was -15

Reported inhibition at 50 µM for `N=c1n(CCN2CCCCC2)c2ccccc2n1CC(=O)c1ccc(Cl)c(Cl)c1` was 96.7

Reported inhibition at 50 µM for `CN(C)c1ccc(-c2nc3cc(N)ccc3[nH]2)cc1` was 29.4

Reported inhibition at 50 µM for `FC(F)(F)c1cccc(Nc2nc(-c3ccccc3)nc3ncccc23)c1` was 95.3

Reported inhibition at 50 µM for COc1ccc(Br)cc1C1Nc2ccc3ccccc3c2C2=C1C(=O)CC(c1ccccc1)C2 (stereo not shown) was 69.1

Reported inhibition at 50 µM for CC1CCCCN1CCCNC(=O)c1ccc2c(c1)sc1nc(-c3ccc(F)cc3)cn12 (stereo not shown) was 97

----------
# Test system: Plasmodium berghei (Pb-Luc) exoerythrocytic-stage parasites
# Assay comment: microbe, parasite or virus in culture
# Test context: read-out: Inhibition% @ 50 uM rep2
Property measured: inhibition at 50 µM (%)
# unit: % | format: bare number

Reported inhibition at 50 µM for `COc1ccc(CN2CCN(Cc3ccccc3)CC2)c(O)c1` was 72

Reported inhibition at 50 µM for `COc1cc(C(=O)ON=C(N)Cc2cccc3ccccc23)cc(OC)c1OC` was 103

Reported inhibition at 50 µM for `Oc1ccc(Br)cc1CN1CCN(Cc2ccc(Cl)cc2)CC1` was 103

Reported inhibition at 50 µM for `CCOc1ccccc1CN1CCc2nc3cc(C(C)(C)C)nn3c(O)c2C1` was 100

Reported inhibition at 50 µM for `c1ccc2c(NCCCCCCNc3c4c(nc5ccccc35)CCCC4)c3c(nc2c1)CCCC3` was 104

----------
# System: Plasmodium berghei (Pb-Luc) exoerythrocytic-stage parasites
# Test context: second series; concentration 0.37037; fraction of control
Response field class: enum, chosen by comparing normalized signal at concentration 0.37037 against low end (below 0.9), middle (0.9 to below 1), high end (1 or more)

# example entries with known answers
molecule="C[C@@H]1CN([C@H](C)CO)C(=O)c2cc(N(C)C)ccc2O[C@@H](C)CCCCO[C@H]1CN(C)S(=O)(=O)c1ccc(F)cc1 [BRD-K72687327-001-01-6]" assigned_label="high end"
molecule="C[C@@H]1CN([C@@H](C)CO)C(=O)c2cccc(NC(=O)c3ccc(-c4nccs4)cc3)c2O[C@H]1CN(C)C(=O)Nc1ccc(C(F)(F)F)cc1 [BRD-K97485207-001-01-1]" assigned_label=middle
molecule="COc1ccc(NC(=O)N(C)C[C@H]2Oc3ccc(NC(=O)CCN4CCOCC4)cc3C(=O)N([C@H](C)CO)C[C@@H]2C)cc1 [BRD-K36853881-001-02-5]" assigned_label="low end"
molecule="COCC(=O)N1C[C@H](C)[C@@H](OC)CN(C)C(=O)c2ccc(NC(=O)Nc3cccc(F)c3)cc2OC[C@@H]1C [BRD-K86826411-001-01-1]" assigned_label=middle
molecule="C/C=C/c1ccc([C@H]2[C@@H](CO)N(CC3CCCCC3)[C@H]2CNC(C)C)cc1 [BRD-K63968422-001-01-5]" assigned_label="high end"
molecule="CCc1csc(N2[C@H](CO)[C@H](c3ccccc3)[C@@H]2CNC)n1 [BRD-K87640608-001-01-8]" assigned_label="high end"

-- ask Band of CN(C)C(=O)c1ccc(-c2ccc([C@@H]3[C@H]4CN(C(=O)CC5CC5)CC(=O)N4[C@H]3CO)cc2)cc1 [BRD-K27481961-001-01-1] ?
-- reply high end

-- ask Band of C[C@H]1CN([C@@H](C)CO)C(=O)c2cc(C#Cc3ccccc3)cnc2O[C@H]1CN(C)C(=O)c1ccccc1 [BRD-K12503654-001-01-1] ?
-- reply high end

-- ask Band of C[C@@H]1CCCCO[C@@H](CN(C)S(=O)(=O)c2ccc(F)cc2)[C@@H](C)CN([C@H](C)CO)C(=O)c2cc(N(C)C)ccc2O1 [BRD-K46014293-001-01-6] ?
-- reply high end

-- ask Band of COc1cccc(CN2[C@H](CO)[C@@H](c3ccccc3)C23CN(Cc2ccccc2OC)C3)c1 [BRD-K58149752-001-01-9] ?
-- reply low end

-- ask Band of C[C@@H]1CCCCO[C@@H](CN(C)S(=O)(=O)c2ccc(F)cc2)[C@@H](C)CN([C@@H](C)CO)C(=O)c2cc(N(C)C)ccc2O1 [BRD-K74261250-001-01-9] ?
-- reply low end

-- ask Band of C[C@H](CO)N1C[C@H](C)[C@@H](CN(C)C(=O)Nc2ccc(C(F)(F)F)cc2)Oc2c(NC(=O)c3ccc(-c4nccs4)cc3)cccc2C1=O [BRD-K70940716-001-01-0] ?
-- reply high end

----------
# Test system: Plasmodium berghei (Pb-Luc) exoerythrocytic-stage parasites
# Assay comment: microbe, parasite or virus in culture
# Test context: read-out: Inhibition% @ 50 uM rep2
Property measured: inhibition at 50 µM (%)
# unit: % | format: bare number

molecule="CC1CCCCN1CCCNC(=O)c1ccc2c(c1)sc1nc(-c3ccc(F)cc3)cn12 (stereo not shown)" target_or_system="Plasmodium berghei (Pb-Luc) exoerythrocytic-stage parasites" property_measured="inhibition at 50 µM" units_text=% quantitative_readout=103
molecule=CN1CCN(c2ccc(Nc3c4ccccc4nc4ccccc34)cc2)CC1 target_or_system="Plasmodium berghei (Pb-Luc) exoerythrocytic-stage parasites" property_measured="inhibition at 50 µM" units_text=% quantitative_readout=106
molecule=Cc1ccc(NC(=O)Nc2cccc(Cl)c2)cc1F target_or_system="Plasmodium berghei (Pb-Luc) exoerythrocytic-stage parasites" property_measured="inhibition at 50 µM" units_text=% quantitative_readout=105

Kindly review the next molecule as well.
Reported inhibition at 50 µM for Cc1cccc(N2C(=O)C3C(C2=O)C2(c4ccccc4)C(=O)C3(c3ccccc3)C(c3ccc4c(c3)OCO4)=C2c2ccc3c(c2)OCO3)c1 (stereo not shown) was 57

----------
# System: HepG2-A16-CD81EGFP cells
# Test context: human, 50 uM
Each entry below carries its reported HepG2 Tox% @ 50 uM rep1.
# unit: % | format: bare number

compound=COc1ccc2nc(C)cc(Nc3cccc(O)c3)c2c1 property_measured="HepG2 Tox% @ 50 uM rep1" units_text=% quantitative_readout=99
compound="Oc1c(C(Nc2ccccn2)c2cccc(Oc3ccccc3)c2)ccc2cccnc12 (centres unmarked)" property_measured="HepG2 Tox% @ 50 uM rep1" units_text=% quantitative_readout=-17
compound=Cc1cc(NC(=O)c2cccc(C(F)(F)F)c2)n(-c2nc(-c3ccc4c(c3)OCO4)cs2)n1 property_measured="HepG2 Tox% @ 50 uM rep1" units_text=% quantitative_readout=-15
compound=OCCNc1nc(Nc2ccc(Cl)c(Cl)c2)nc2ccccc12 property_measured="HepG2 Tox% @ 50 uM rep1" units_text=% quantitative_readout=98
compound=CN(C)CCCNCc1ccc(-c2ccc(F)c(Cl)c2)o1 property_measured="HepG2 Tox% @ 50 uM rep1" units_text=% quantitative_readout=96
compound=Oc1ccc2ccccc2c1CNc1nc2ccccc2[nH]1 property_measured="HepG2 Tox% @ 50 uM rep1" units_text=% quantitative_readout=100

Reported HepG2 Tox% @ 50 uM rep1 for `COc1cc(-c2nc(-c3ccccc3)c(-c3ccccc3)[nH]2)cc(OC)c1O` was 102

Reported HepG2 Tox% @ 50 uM rep1 for `COc1ccc(-c2cc3c(nn2)-c2ccccc2C3=O)cc1` was 21

Reported HepG2 Tox% @ 50 uM rep1 for CCCC(c1nnnn1C1CCCCC1)N1CCN(C(=O)c2ccco2)CC1 (centres unmarked) was -6

Reported HepG2 Tox% @ 50 uM rep1 for COc1ccc(CCNC(=O)c2cc(S(=O)(=O)N3CC(C)CC(C)C3)ccc2Sc2ccc(F)cc2)cc1OC (centres unmarked) was -12

Reported HepG2 Tox% @ 50 uM rep1 for `CN(C)c1ccc(-c2nc3cc(N)ccc3[nH]2)cc1` was 29

Reported HepG2 Tox% @ 50 uM rep1 for OC(CNC1CCCCC1)Cn1c2ccc(I)cc2c2cc(I)ccc21 (centres unmarked) was 100

Reported HepG2 Tox% @ 50 uM rep1 for `COc1ccc(C(=O)Nc2ccc3nc(N4CCCCC4)cc(C)c3c2)cc1OC` was 101

Reported HepG2 Tox% @ 50 uM rep1 for CCCN(CCC)CC(O)COc1ccccc1C(=O)Nc1ccccc1 (centres unmarked) was -8

Reported HepG2 Tox% @ 50 uM rep1 for CCCCC(O)(c1ccc(Cl)cc1)C(CN1CCOCC1)c1ccc(Cl)cc1 (centres unmarked) was 97
